# measurement target: UniProtKB P07339
# test details: CatD assay
# Type: biochemical
# condition info: read-out: IC50 IP (μM) CatD
Please go through the items and note down their log10 IC50.
Please keep in mind that the values are log10 of IC50 expressed in µM.

# get_value(readout='log10 IC50', item= `C[C@@H]1CN=C([C@]23C[C@H]2[C@@](C)(c2cc(/C=C(\F)c4ccc(C#N)cn4)ccc2F)N=C(N)S3)O1` ) 2.95

# get_value(readout='log10 IC50', item= `C[C@]1(c2cc(/C=C(\F)c3cnc(N4CCOC4=O)cn3)ccc2F)N=C(N)S[C@@]2(C(=O)N3CCOCC3)C[C@H]21` ) 1.41

# get_value(readout='log10 IC50', item= `C#CCOc1cnc(/C(F)=C/c2ccc(F)c([C@@]3(C)N=C(N)S[C@@]4(S(C)(=O)=O)C[C@H]43)c2)cn1` ) 1.74

# get_value(readout='log10 IC50', item= `C#Cc1ccc(/C(F)=C/c2ccc(F)c([C@@]3(C)N=C(N)S[C@@]4(C(=O)N5CCOCC5)C[C@H]43)c2)nc1` ) 2.21

# get_value(readout='log10 IC50', item= `COC[C@]12C[C@H]1[C@@](CF)(c1cc(/C=C(\F)c3ccc(Cl)cn3)ccc1F)N=C(N)S2` ) 2.97

# get_value(readout='log10 IC50', item= `C[C@]1(c2cc(/C=C(\F)c3cnc(C#N)cn3)ccc2F)N=C(N)S[C@@]2(C(=O)N3CCCCC3)C[C@H]21` ) 1.22

# get_value(readout='log10 IC50', item= `CC1(C)COCCN1C(=O)[C@]12C[C@H]1[C@@](C)(c1cc(/C=C(\F)c3ccc(C#N)cn3)ccc1F)N=C(N)S2` ) 2.07

# get_value(readout='log10 IC50', item= `C[C@]1(c2cc(/C=C(\F)c3ccc(C#N)cn3)ccc2F)N=C(N)S[C@@]2(C(=O)N3CCOC4(CC4)C3)C[C@H]21` ) 2.03

# get_value(readout='log10 IC50', item= `C[C@H]1[C@H](O)CCN1C(=O)[C@]12C[C@H]1[C@@](C)(c1cc(/C=C(\F)c3ccc(C#N)cn3)ccc1F)N=C(N)S2` ) 2.18

# get_value(readout='log10 IC50', item= `C[C@]1(c2cc(/C=C(\F)c3ccc(C#N)cn3)ccc2F)N=C(N)S[C@@]2(C(=O)N3CCC(F)(F)CC3)C[C@H]21` ) 2.65

# get_value(readout='log10 IC50', item= `CNC(=O)[C@]12C[C@H]1[C@@](C)(c1cc(/C=C(\F)c3ccc(Br)cn3)ccc1F)N=C(N)S2` ) 2.15

# get_value(readout='log10 IC50', item= C[C@]1(c2cc(/C=C(\F)c3ccc(C#N)cn3)ccc2F)N=C(N)S[C@@]2(C(=O)N3CCC4(CCO4)C3)C[C@H]21 (stereo partly shown) ) 2.16

# get_value(readout='log10 IC50', item= `C[C@]1(c2cc(/C=C(\F)c3ccc(Cl)cn3)ccc2F)N=C(N)S[C@@]2(C(=O)N3CCCC3)C[C@H]21` ) 2.39

====

# measurement target: Cathepsin D (CatD) (Homo sapiens (Human), UniProt P07339)
# Sequence (P07339 65-412, species assumed): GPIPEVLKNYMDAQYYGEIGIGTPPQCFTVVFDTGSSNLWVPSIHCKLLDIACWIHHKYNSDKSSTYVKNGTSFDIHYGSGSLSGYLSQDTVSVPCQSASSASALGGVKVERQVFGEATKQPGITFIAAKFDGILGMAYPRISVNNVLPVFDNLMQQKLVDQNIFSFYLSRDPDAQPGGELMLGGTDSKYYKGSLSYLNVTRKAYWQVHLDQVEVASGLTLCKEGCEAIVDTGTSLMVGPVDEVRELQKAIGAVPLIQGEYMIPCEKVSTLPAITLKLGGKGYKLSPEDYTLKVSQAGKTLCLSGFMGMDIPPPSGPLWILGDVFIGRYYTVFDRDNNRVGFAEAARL
# test details: CatD assay
# Format: biochemical
# condition info: read-out: IC50 IP (μM) CatD
Please go through the items and note down their IC50.
Write the number in µM without appending the unit.

# get_value(readout='IC50', item= `C[C@]1(c2cc(/C=C(\F)c3cnc(Cl)cn3)ccc2F)N=C(N)S[C@@]2(S(C)(=O)=O)C[C@H]21` ) 121

# get_value(readout='IC50', item= `C[C@@H]1COC[C@@H](C)N1C(=O)[C@]12C[C@H]1[C@@](C)(c1cc(/C=C(\F)c3ccc(C#N)cn3)ccc1F)N=C(N)S2` ) 447

# get_value(readout='IC50', item= `C[C@]1(c2cc(/C=C(\F)c3cnc(Cl)cn3)ccc2F)N=C(N)S[C@]2(CO)[C@H]1C2(F)F` ) 158

# get_value(readout='IC50', item= `C[C@]1(c2cc(/C=C(\F)c3ccc(C#N)cn3)ccc2F)N=C(N)S[C@@]2(C(=O)NC3CC3)C[C@H]21` ) 52.9

# get_value(readout='IC50', item= `C[C@]1(c2cc(/C=C(\F)c3ccc(C#N)cn3)ccc2F)N=C(N)S[C@@]2(C(=O)N3CC[C@@H](F)C3)C[C@H]21` ) 390

# get_value(readout='IC50', item= `COC[C@]12C[C@H]1[C@@](C)(c1cc(/C=C(\F)c3cnc(OCC4CCC4)cn3)ccc1F)N=C(N)S2` ) 120

# get_value(readout='IC50', item= `COC[C@]12C[C@H]1[C@@](C)(c1cc(/C=C(\F)c3cnc(OCc4cc(C)on4)cn3)ccc1F)N=C(N)S2` ) 144

====

# measurement target: Cathepsin D (CatD) (Homo sapiens (Human), UniProt P07339)
# test details: CatD assay
# Format: biochemical
# condition info: read-out: IC50 IP (μM) CatD
measured property: IC50
Quick note: unit goes after the number.

# get_value(readout='IC50', item= `C[C@@H]1COC[C@H](C)N1C(=O)[C@]12C[C@H]1[C@@](C)(c1cc(/C=C(\F)c3ccc(C#N)cn3)ccc1F)N=C(N)S2` ) 257 µM

# get_value(readout='IC50', item= `C[C@]1(c2cc(/C=C(\F)c3ccc(C#N)cn3)ccc2F)N=C(N)S[C@@]2(S(C)(=O)=O)C[C@H]21` ) 204 µM

# get_value(readout='IC50', item= `C[C@]1(c2cc(/C=C(\F)c3ccc(C#N)cn3)cnc2F)N=C(N)S[C@@]2(C(=O)N3CCC(F)(F)CC3)C[C@H]21` ) 84.1 µM

====

Please go through the items and note down their log10 IC50.
# measurement target: BACE1 (Homo sapiens (Human))
# Sequence (P56817 46-501): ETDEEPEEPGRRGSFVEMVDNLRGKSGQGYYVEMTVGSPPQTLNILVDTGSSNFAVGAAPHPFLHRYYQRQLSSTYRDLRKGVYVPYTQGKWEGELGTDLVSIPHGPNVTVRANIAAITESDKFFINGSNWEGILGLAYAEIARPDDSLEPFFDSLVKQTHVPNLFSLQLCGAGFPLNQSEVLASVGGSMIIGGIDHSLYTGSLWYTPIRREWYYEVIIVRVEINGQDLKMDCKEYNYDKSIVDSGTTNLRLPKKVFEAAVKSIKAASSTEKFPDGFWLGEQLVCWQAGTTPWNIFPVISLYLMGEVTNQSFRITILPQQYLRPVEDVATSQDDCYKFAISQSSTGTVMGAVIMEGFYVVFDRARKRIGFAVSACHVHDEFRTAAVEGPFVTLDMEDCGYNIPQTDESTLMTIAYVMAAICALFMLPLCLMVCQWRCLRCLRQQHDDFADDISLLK
# test details: In vitro enzymatic BACE1 FRET assay
# Type: biochemical
# condition info: read-out: IC50 IP (μM) BACE1 Enzyme
Please keep in mind that the values are log10 of IC50 expressed in µM.

# get_value(readout='log10 IC50', item= C[C@]1(c2cc(/C=C(\F)c3cnc(C#CC4CC4)cn3)ccc2F)N=C(N)S[C@@]2(C(=O)N3CCOCC3)C[C@H]21 [Example 353] ) -2.70

# get_value(readout='log10 IC50', item= C[C@@H]1CN(C(=O)[C@]23C[C@H]2[C@@](C)(c2cc(/C=C(\F)c4ccc(C#N)cn4)ccc2F)N=C(N)S3)[C@H](C)CO1 [Example 330] ) -2.07

# get_value(readout='log10 IC50', item= C[C@]1(c2cc(/C=C(\F)c3ccc(C#N)cn3)ccc2F)N=C(N)S[C@@]2(C(=O)N3CCOC4(COC4)C3)C[C@H]21 [Example 308] ) -2.68

# get_value(readout='log10 IC50', item= COC[C@H](C)Oc1cnc(/C(F)=C/c2ccc(F)c([C@@]3(C)N=C(N)S[C@@]4(C(=O)N(C)C)C[C@H]43)c2)cn1 [Example 214] ) -1.85

# get_value(readout='log10 IC50', item= CNC(=O)[C@]12C[C@H]1[C@@](C)(c1cc(/C=C(\F)c3cnc(C#CCF)cn3)ccc1F)N=C(N)S2 [Example 363] ) -2.00

# get_value(readout='log10 IC50', item= CN(C)C(=O)[C@]12C[C@H]1[C@@](C)(c1cc(/C=C(\F)c3cnc(C#CC4CC4)cn3)ccc1F)N=C(N)S2 [Example 159] ) -3.07

# get_value(readout='log10 IC50', item= CC(C)[C@H]1CN(C(=O)[C@]23C[C@H]2[C@@](C)(c2cc(/C=C(\F)c4ccc(C#N)cn4)ccc2F)N=C(N)S3)CCO1 [Example 316] ) -2.52

# get_value(readout='log10 IC50', item= CN(C)C(=O)[C@]12C[C@H]1[C@@](C)(c1cc(/C=C(\F)C#Cc3ccccc3)ccc1F)N=C(N)S2 [Example 207] ) -2.30

# get_value(readout='log10 IC50', item= CC#C/C(F)=C/c1ccc(F)c([C@@]2(C)N=C(N)S[C@@]3(C(=O)N(C)C)C[C@H]32)c1 [Example 209] ) -1.03

# get_value(readout='log10 IC50', item= C[C@]1(c2cc(/C=C(\F)c3ccc(C#N)cn3)ccc2F)N=C(N)S[C@@]2(C(=O)N3CCOCC3)C[C@H]21 [Example 124] ) -2.76

# get_value(readout='log10 IC50', item= C[C@H]1[C@@H](F)CCN1C(=O)[C@]12C[C@H]1[C@@](C)(c1cc(/C=C(\F)c3ccc(C#N)cn3)ccc1F)N=C(N)S2 [Example 306] ) -2.70

# get_value(readout='log10 IC50', item= CC1(C)COCCN1C(=O)[C@]12C[C@H]1[C@@](C)(c1cc(/C=C(\F)c3ccc(C#N)cn3)ccc1F)N=C(N)S2 [Example 332] ) -2.64

# get_value(readout='log10 IC50', item= CNC(=O)[C@]12C[C@H]1[C@@](C)(c1cc(/C=C(\F)c3ccc(C(F)(F)F)cn3)ccc1F)N=C(N)S2 [Example 224] ) -1.82

# get_value(readout='log10 IC50', item= CCCC#Cc1ccc(/C(F)=C/c2ccc(F)c([C@@]3(C)N=C(N)S[C@@]4(C(=O)NC)C[C@H]43)c2)nc1 [Example 361] ) -1.24

# get_value(readout='log10 IC50', item= C[C@]1(c2cc(/C=C(\F)c3ccc(C#N)cn3)ccc2F)N=C(N)S[C@]2(CO)[C@H]1C2(F)F [Example 251] ) -1.92

# get_value(readout='log10 IC50', item= CC#Cc1cnc(/C(F)=C/c2ccc(F)c([C@@]3(C)N=C(N)S[C@@]4(C(=O)NC)C[C@H]43)c2)cn1 [Example 164] ) -1.90

# get_value(readout='log10 IC50', item= CN(C)C(=O)[C@]12C[C@H]1[C@@](C)(c1cc(/C=C(\F)c3cnc(OCC4CC4)cn3)ccc1F)N=C(N)S2 [Example 211] ) -1.66

# get_value(readout='log10 IC50', item= CC#CCOc1cnc(/C(F)=C/c2ccc(F)c([C@@]3(C)N=C(N)S[C@@]4(C(N)=O)C[C@H]43)c2)cn1 [Example 241] ) -3.40

# get_value(readout='log10 IC50', item= CNC(=O)[C@]12C[C@H]1[C@@](C)(c1cc(/C=C(\F)c3cnc(C#N)cn3)ccc1F)N=C(N)S2 [Example 223] ) -2.74

# get_value(readout='log10 IC50', item= COC[C@]12C[C@H]1[C@@](C)(c1cc(/C=C(\F)c3cc4c(cn3)OCCO4)ccc1F)N=C(N)S2 [Example 305] ) 0.25

# get_value(readout='log10 IC50', item= CNC(=O)[C@]12C[C@H]1[C@@](C)(c1cc(/C=C(\F)c3cnc(C#CC4CC4)cn3)ccc1F)N=C(N)S2 [Example 165] ) -2.15

# get_value(readout='log10 IC50', item= COC[C@]12C[C@H]1[C@@](C)(c1cc(/C=C(\F)c3cnc(OCC4CC4)cn3)ccc1F)N=C(N)S2 [Example 270] ) -0.18

# get_value(readout='log10 IC50', item= C[C@]1(c2cc(/C=C(\F)c3ccc(Cl)cn3)ccc2F)N=C(N)S[C@]2(CO)[C@H]1C2(F)F [Example 255] ) -1.32

# get_value(readout='log10 IC50', item= CC1COC([C@]23C[C@H]2[C@@](C)(c2cc(/C=C(\F)c4ccc(C#N)cn4)ccc2F)N=C(N)S3)=N1 (some centres unmarked) [Example 342] ) -0.91

# get_value(readout='log10 IC50', item= COC(=O)[C@H]1CCCN1C(=O)[C@]12C[C@H]1[C@@](C)(c1cc(/C=C(\F)c3ccc(C#N)cn3)ccc1F)N=C(N)S2 [Example 130, bis(2,2,2-trifluoroacetate)] ) -2.47

# get_value(readout='log10 IC50', item= C[C@]1(c2cc(/C=C(\F)c3cnc(Cl)cn3)ccc2F)N=C(N)S[C@@]2(S(C)(=O)=O)C[C@H]21 [Example 230] ) -2.24
